# Tested on: MS2 coat protein
# Experiment Summary: apparent KD of MS2 coat protein; designed switch direction (-1 OFF switch, 1 ON switch): 1; higher = weaker reporter binding
# Assay Conditions: input ligand: none

- Residue String: "UAUGACUUACAAGGAUAUUAAUAACAUGAGGAUCACCCAUGUGGCUGUGAGAGUUAGAUAAGCUAUAAGAAGGUGUGUGUGUUU [JR_SSNG2_Sub094] (Eterna round: R96, puzzle: Same State NG 2)"
  apparent KD of MS2 coat protein, nM: 173
- Residue String: "UUAAUGAUGAUAGGAUAUACAUGAGGAAUUCUCGUAGAAGGAUCAUGACAUGAGGAUCACCCAUGUAUCGCUCGAAAGAGCGUA [Mat - Same State NG 1 - JL mod - D33] (Eterna round: R96, puzzle: Same State NG 1)"
  apparent KD of MS2 coat protein, nM: 205
- Residue String: "GGACGUCGAUAAUAUAAUCUCACAUGAGGAUCACCCAUGUCACAGGAUAUGGAUCCUAAUUGGAUCCAGAAGGGUGCGACGUCC [Fiskers NG3ss - 35] (Eterna round: R96, puzzle: Same State NG 3)"
  apparent KD of MS2 coat protein, nM: 373
- Residue String: "UUUAUUAAUAUAGGAUAUGUAAAACAUGAGGAUCACCCAUGUGAUAUCGUGAGUAAGGAGAGAGAACAGAAGGAUAAUUUUUUU [JMF's solution 2] (Eterna round: R96, puzzle: Same State NG 2)"
  apparent KD of MS2 coat protein, nM: 32.5
